Biological target: UniProtKB D0EWS6
Sequence (D0EWS6 1-934): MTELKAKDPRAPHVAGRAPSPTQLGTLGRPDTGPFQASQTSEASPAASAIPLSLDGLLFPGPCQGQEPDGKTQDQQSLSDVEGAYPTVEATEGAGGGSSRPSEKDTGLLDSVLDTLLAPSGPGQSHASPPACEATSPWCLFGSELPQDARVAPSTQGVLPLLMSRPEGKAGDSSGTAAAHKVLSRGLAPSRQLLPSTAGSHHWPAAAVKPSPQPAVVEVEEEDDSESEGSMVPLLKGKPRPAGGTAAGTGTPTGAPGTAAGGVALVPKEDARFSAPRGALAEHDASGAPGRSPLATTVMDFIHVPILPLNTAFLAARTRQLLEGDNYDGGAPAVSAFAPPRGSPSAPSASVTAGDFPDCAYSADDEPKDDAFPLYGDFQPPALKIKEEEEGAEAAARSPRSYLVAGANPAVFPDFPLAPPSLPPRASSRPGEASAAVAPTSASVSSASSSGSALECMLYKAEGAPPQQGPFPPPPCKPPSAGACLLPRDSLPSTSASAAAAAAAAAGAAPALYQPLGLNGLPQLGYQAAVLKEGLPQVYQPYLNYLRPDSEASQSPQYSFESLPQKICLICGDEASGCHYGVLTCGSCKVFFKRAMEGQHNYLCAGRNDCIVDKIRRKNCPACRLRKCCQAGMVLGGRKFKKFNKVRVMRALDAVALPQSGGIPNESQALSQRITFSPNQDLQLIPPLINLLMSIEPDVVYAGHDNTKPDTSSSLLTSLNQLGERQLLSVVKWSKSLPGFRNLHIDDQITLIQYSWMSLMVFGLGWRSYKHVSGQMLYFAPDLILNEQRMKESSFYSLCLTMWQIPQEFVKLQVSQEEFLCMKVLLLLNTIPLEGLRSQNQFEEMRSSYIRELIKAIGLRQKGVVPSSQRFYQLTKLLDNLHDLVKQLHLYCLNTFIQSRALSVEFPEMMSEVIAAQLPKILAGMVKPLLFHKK
quantityMeasured: IC50 (nM)

Worked set:
CCCC(=O)O[C@H]1CC=C2C=C3OC(=O)C(C)=C3C[C@]2(C)[C@H]1C (relative stereo) | 53
CC(=O)O[C@H]1CC=C2C=C3OC(=O)C(C)=C3C[C@]2(C)[C@H]1C (relative stereo) | 55
CC1=C2C[C@@]3(C)C(=C[C@H](OCc4ccccc4)[C@H](O)[C@@H]3C)C=C2OC1=O | 2840
CC(=O)O[C@H]1CC=C2C=C3OC(=O)C=C3C[C@]2(C)[C@H]1C (relative stereo) | 39
CCCNC(=O)O[C@H]1[C@@H](O)C=C2C=C3OC(=O)C(C)=C3C[C@]2(C)[C@H]1C | 288

a. CO[C@H]1C=C2C=C3OC(=O)C(C)=C3C[C@]2(C)[C@@H](C)[C@H]1OC(C)=O
b. CC(=O)O[C@@H]1CC=C2C=C3OC(=O)C(C)=C3C[C@@]2(C)[C@@H]1C
From the recorded data, which exceeds the other in IC50: a or b ? Kindly state the label of the option you pick.
b
